Catalogue of activation values
Molecular target: CXCR3A (Homo sapiens)
Construct: expressed in transfected cells; host or cells: U87 cells
Assay: Figure S2a opioid peptide screen on chemokine receptors
Assay type: cell-based
Parameters: dose or concentration left out as unconfirmed
Details: replicate 1, read-out: CXCR3A activity, ctrl+ = 100
Starred links: 1 amine or outer side, 2 acyl side, 3 side chain; linkers in the order of their positions; H or OH if unused. Non-standard residues stand in square brackets, D forms with d. Residues, ends and D or L forms follow the SMILES beside them. X1 = N[C@@H](Cc1ccccc1)CN(CC(=O)[*:2])[*:1]
Quantity: activation (%)

Compound	Result Value
CC[C@H](C)[C@H](NC(=O)[C@H](CCCNC(=N)N)NC(=O)[C@H](CCCNC(=N)N)NC(=O)[C@H](CC(C)C)NC(=O)[C@H](Cc1ccccc1)NC(=O)CNC(=O)CN)C(=O)N[C@@H](CCCNC(=N)N)C(=O)N1CCC[C@H]1C(=O)N[C@@H](CCCCN)C(=O)N[C@@H](CC(C)C)C(=O)N[C@@H](CCCCN)C(=O)N[C@@H](Cc1c[nH]c2ccccc12)C(=O)N[C@@H](CC(=O)O)C(=O)N[C@@H](CC(N)=O)C(=O)N[C@@H](CCC(N)=O)C(=O)O	-4.16
C[C@H](NC(=O)CNC(=O)[C@@H](NC(=O)[C@H](Cc1ccccc1)NC(=O)CNC(=O)CNC[C@@H](N)Cc1ccccc1)[C@@H](C)O)C(=O)N[C@@H](CCCNC(=N)N)C(=O)N[C@@H](CCCCN)C(=O)N[C@@H](CO)C(=O)N[C@@H](C)C(=O)N[C@@H](CCCNC(=N)N)C(=O)N[C@@H](CCCCN)C(N)=O [FG Nociceptin 1-13] (H-[X1]GFTGARKSARK-NH2)	2.13
CC[C@H](C)[C@H](NC(=O)[C@H](CCCNC(=N)N)NC(=O)[C@H](CCCNC(=N)N)NC(=O)[C@H](CC(C)C)NC(=O)[C@H](Cc1ccccc1)NC(=O)CNC(=O)CNC(=O)[C@@H](N)Cc1ccc(O)cc1)C(=O)N[C@@H](CCCNC(=N)N)C(=O)N1CCC[C@H]1C(=O)N[C@@H](CCCCN)C(=O)N[C@@H](CC(C)C)C(=O)N[C@@H](CCCCN)C(=O)N[C@@H](Cc1c[nH]c2ccccc12)C(=O)N[C@@H](CC(=O)O)C(=O)N[C@@H](CC(N)=O)C(=O)N[C@@H](CCC(N)=O)C(=O)O	-4.75

###

Target: CXCR6 (Homo sapiens)
Construct: expressed in transfected cells
Sequence (O00574 whole entry): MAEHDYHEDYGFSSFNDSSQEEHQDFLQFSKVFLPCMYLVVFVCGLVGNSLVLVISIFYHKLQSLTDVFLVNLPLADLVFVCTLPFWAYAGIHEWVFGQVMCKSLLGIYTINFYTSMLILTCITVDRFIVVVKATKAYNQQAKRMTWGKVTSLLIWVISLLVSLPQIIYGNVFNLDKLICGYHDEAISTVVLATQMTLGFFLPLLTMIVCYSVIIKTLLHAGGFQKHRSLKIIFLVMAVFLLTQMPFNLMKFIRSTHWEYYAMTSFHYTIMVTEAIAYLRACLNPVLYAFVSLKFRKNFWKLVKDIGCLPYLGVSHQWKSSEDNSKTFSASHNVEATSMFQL
Test: Figure S2a opioid peptide screen on chemokine receptors
Type: cell-based
Set-up: dose or concentration left out as unconfirmed
Settings: replicate 3, read-out: CXCR6 activity, ctrl+ = 100
Starred links: 1 amine or outer side, 2 acyl side, 3 side chain; linkers in the order of their positions; H or OH if unused. Non-standard residues stand in square brackets, D forms with d. Residues, ends and D or L forms follow the SMILES beside them. X1 = N[C@@H](Cc1ccccc1)CN(CC(=O)[*:2])[*:1]
Catalogue of activation values

Compound	activation, %
CC(C)C[C@H](NC(=O)[C@H](Cc1ccccc1)NC(=O)CNC(=O)CNC(=O)[C@@H](N)Cc1ccc(O)cc1)C(=O)N[C@@H](CCCN=C(N)N)C(=O)N[C@@H](CCCN=C(N)N)C(=O)N[C@@H](CCC(N)=O)C(=O)N[C@@H](Cc1ccccc1)C(=O)N[C@@H](CCCCN)C(=O)N[C@H](C(=O)N[C@H](C(=O)N[C@H](C(=O)O)[C@@H](C)O)C(C)C)C(C)C	0.0809
CC[C@H](C)[C@H](NC(=O)[C@H](CCCNC(=N)N)NC(=O)[C@H](CCCNC(=N)N)NC(=O)[C@H](CC(C)C)NC(=O)[C@H](Cc1ccccc1)NC(=O)CNC(=O)CNC(=O)[C@@H](N)Cc1ccc(O)cc1)C(=O)N[C@@H](CCCNC(=N)N)C(=O)N1CCC[C@H]1C(=O)N[C@@H](CCCCN)C(=O)N[C@@H](CC(C)C)C(=O)N[C@@H](CCCCN)C(=O)N[C@@H](Cc1c[nH]c2ccccc12)C(=O)N[C@@H](CC(=O)O)C(=O)N[C@@H](CC(N)=O)C(=O)N[C@@H](CCC(N)=O)C(=O)O	0.283
C[C@H](NC(=O)CNC(=O)[C@@H](NC(=O)[C@H](Cc1ccccc1)NC(=O)CNC(=O)CNC(=O)[C@@H](N)Cc1ccccc1)[C@@H](C)O)C(=O)N[C@@H](CCCNC(=N)N)C(=O)N[C@@H](CCCCN)C(=O)N[C@@H](CO)C(=O)N[C@@H](C)C(=O)N[C@@H](CCCNC(=N)N)C(=O)N[C@@H](CCCCN)C(N)=O	2.41
CSCC[C@H](NC(=O)[C@H](Cc1ccccc1)NC(=O)CNC(=O)CNC(=O)[C@@H](N)Cc1ccc(O)cc1)C(=O)N[C@@H](CCCNC(=N)N)C(=O)N[C@@H](CCCNC(=N)N)C(=O)N[C@H](C(N)=O)C(C)C	-0.716
C[C@H](NC(=O)CNC(=O)[C@@H](NC(=O)[C@H](Cc1ccccc1)NC(=O)CNC(=O)CNC[C@@H](N)Cc1ccccc1)[C@@H](C)O)C(=O)N[C@@H](CCCNC(=N)N)C(=O)N[C@@H](CCCCN)C(=O)N[C@@H](CO)C(=O)N[C@@H](C)C(=O)N[C@@H](CCCNC(=N)N)C(=O)N[C@@H](CCCCN)C(N)=O [FG Nociceptin 1-13] (H-[X1]GFTGARKSARK-NH2)	0.612

###

Catalogue of activation values
Molecular target: CXCR3B (Homo sapiens)
Construct: expressed in transfected cells; host or cells: U87 cells
Sequence (P49682 1-415 isoform P49682-2): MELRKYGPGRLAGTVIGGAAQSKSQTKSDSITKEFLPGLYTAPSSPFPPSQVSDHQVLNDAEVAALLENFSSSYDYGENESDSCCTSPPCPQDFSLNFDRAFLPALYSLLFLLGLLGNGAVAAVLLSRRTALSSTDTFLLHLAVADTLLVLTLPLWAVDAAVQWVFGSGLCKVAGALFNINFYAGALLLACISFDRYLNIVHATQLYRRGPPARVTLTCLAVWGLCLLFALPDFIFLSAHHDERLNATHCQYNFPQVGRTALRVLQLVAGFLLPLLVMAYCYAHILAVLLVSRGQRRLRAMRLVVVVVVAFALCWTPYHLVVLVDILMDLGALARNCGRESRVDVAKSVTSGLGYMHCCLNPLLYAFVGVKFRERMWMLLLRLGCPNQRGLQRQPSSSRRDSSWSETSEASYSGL
Assay: Figure S2a opioid peptide screen on chemokine receptors
Assay type: cell-based
Set-up: dose or concentration left out as unconfirmed
Conditions: replicate 3, read-out: CXCR3B activity, ctrl+ = 100
Starred links: 1 amine or outer side, 2 acyl side, 3 side chain; linkers in the order of their positions; H or OH if unused. Non-standard residues stand in square brackets, D forms with d. Residues, ends and D or L forms follow the SMILES beside them. X1 = N[C@@H](Cc1ccccc1)CN(CC(=O)[*:2])[*:1]

Molecule	activation
C[C@H](NC(=O)CNC(=O)[C@@H](NC(=O)[C@H](Cc1ccccc1)NC(=O)CNC(=O)CNC(=O)[C@@H](N)Cc1ccccc1)[C@@H](C)O)C(=O)N[C@@H](CCCNC(=N)N)C(=O)N[C@@H](CCCCN)C(=O)N[C@@H](CO)C(=O)N[C@@H](C)C(=O)N[C@@H](CCCNC(=N)N)C(=O)N[C@@H](CCCCN)C(N)=O	7.41%
C[C@H](NC(=O)CNC(=O)[C@@H](NC(=O)[C@H](Cc1ccccc1)NC(=O)CNC(=O)CNC[C@@H](N)Cc1ccccc1)[C@@H](C)O)C(=O)N[C@@H](CCCNC(=N)N)C(=O)N[C@@H](CCCCN)C(=O)N[C@@H](CO)C(=O)N[C@@H](C)C(=O)N[C@@H](CCCNC(=N)N)C(=O)N[C@@H](CCCCN)C(N)=O [FG Nociceptin 1-13] (H-[X1]GFTGARKSARK-NH2)	8.05%
CSCC[C@H](NC(=O)[C@H](Cc1ccccc1)NC(=O)CNC(=O)CNC(=O)[C@@H](N)Cc1ccc(O)cc1)C(=O)N[C@@H](CCCNC(=N)N)C(=O)N[C@@H](CCCNC(=N)N)C(=O)N[C@H](C(N)=O)C(C)C	0.555%
CC(C)C[C@H](NC(=O)[C@H](Cc1ccccc1)NC(=O)CNC(=O)CNC(=O)[C@@H](N)Cc1ccc(O)cc1)C(=O)N[C@@H](CCCN=C(N)N)C(=O)N[C@@H](CCCN=C(N)N)C(=O)N[C@@H](CCC(N)=O)C(=O)N[C@@H](Cc1ccccc1)C(=O)N[C@@H](CCCCN)C(=O)N[C@H](C(=O)N[C@H](C(=O)N[C@H](C(=O)O)[C@@H](C)O)C(C)C)C(C)C	0.918%
